Hello, the source for this data is patent US20260265410A1, in case you need it.

Provide the recorded flow cytometry binding value (the table prints no name or unit) for the entries that follow.
Molecular target: T1, human Nectin-2 on the cell surface (U937 cells) (human, UniProt Q92692 32-538)
T1 construct: Endogenous Nectin-2 of U937 cells; also called PVRL2; CD112
T1 sequence: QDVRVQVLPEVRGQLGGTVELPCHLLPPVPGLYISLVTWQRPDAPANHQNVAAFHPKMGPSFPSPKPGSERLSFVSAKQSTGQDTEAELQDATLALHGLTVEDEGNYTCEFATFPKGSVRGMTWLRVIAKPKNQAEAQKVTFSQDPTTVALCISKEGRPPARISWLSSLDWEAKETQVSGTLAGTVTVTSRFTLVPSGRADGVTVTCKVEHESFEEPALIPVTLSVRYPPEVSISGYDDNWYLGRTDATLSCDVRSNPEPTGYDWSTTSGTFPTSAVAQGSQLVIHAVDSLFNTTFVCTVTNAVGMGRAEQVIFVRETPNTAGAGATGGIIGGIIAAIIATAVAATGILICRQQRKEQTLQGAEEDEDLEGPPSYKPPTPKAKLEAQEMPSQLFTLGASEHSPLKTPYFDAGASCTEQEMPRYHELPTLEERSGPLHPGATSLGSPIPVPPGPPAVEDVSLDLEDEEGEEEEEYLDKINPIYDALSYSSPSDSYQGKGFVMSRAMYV
Assay: flow cytometry on whole U937 cells, screen of the 28 clones (Ctrl row = 0); Nectin-2 is named as the antigen on U937 cells only in the later examples
# output: bare number, no unit

What measured flow cytometry binding value (the table prints no name or unit) goes with Fab_350 (Fab, V domains shown, Chimeric rabbit/human Fab; also called N350; clone 350) VH: QEQLEESGGRLVTPGTPLTLTCTASGFSLSSYHMSWVRQAPGKGLEWIGLINTGDSAYYASWAKGRFTISRTSTTVDLRITSPTTEDTATYFCARTFGDGFNLWGPGTLVTISS VL: SFVLTQPASVQVDLGQTVSLTCTADTLSRSYASWYQQKPGQAPVLLIYRDTSRPSGVPDRFSGSSSGNTATLTISGAQAGDEADYYCATEDSGDSSYQYVFGGGTQLTVTG ?
89.3

What measured flow cytometry binding value (the table prints no name or unit) goes with Fab_2430 (Fab, V domains shown, Chimeric rabbit/human Fab; also called N2430) VH: AQSLEESGGRLVTPGTPLTLTCTVSGIDLSSYHMNWVRQAPGKGLEWIGIIGASAGTYYARWAKGRFTISKTSTTVDLKITSPTTEDTATYFCARSGGSMQLNLWGPGTLVTISS VL: SFVLTQPASVQVNLGQTVSLTCTADTLSRSYASWYQQKPGQAPVLLIYRDTSRPSGVPDRFSGSSSGNTATLTISGAQAGDEADYYCATDDSSGSSYQYVFGGGTQLTVTG ?
92.6

What measured flow cytometry binding value (the table prints no name or unit) goes with Fab_484 (Fab, V domains shown, Chimeric rabbit/human Fab; also called N484) VH: AQSLEESGGRLVTPGTPLTLTCTASGFSLSSYHMAWVRQAPGKGLEWIGIISSSGSTYYASWAKGRFTISKTSTTVDLKITSPTTEDTATYFCARGFGWGPNLWGPGTLVTVSS VL: SFVLTQPASVQVNLGQMVSLTCTADTLSRSYASWYQQKPGQAPVLLIYRDTSRPSGVPDRFSGSTSGNTATLTISGAQAGDEADYYCATDDNSGSSYQYVFGGGTQLTVTG ?
94.8

What measured flow cytometry binding value (the table prints no name or unit) goes with Fab_2282 (Fab, V domains shown, Chimeric rabbit/human Fab; also called N2282; mAb_2282) VH: QEQLKESGGRLVTPGTPLTLTCTASGFTISSYHMSWVRQAPGKGLEWIGVISASGGSTYYASWAKGRFTISKTSTTVDLKITSPTTEDTATYFCARESYGGYNLWGPGTLVTVSS VL: SFVLTQPASVQVNLGQMVSLTCTADTLSRSYASWYQQKPGQAPVLLIYRDTSRPSGVPDRFSGSTSGNTATLTISGAQAGDEADYYCATDDNSGSSYQYVFGGGTQLTVTG ?
92.2

What measured flow cytometry binding value (the table prints no name or unit) goes with Fab_277 (Fab, V domains shown, Chimeric rabbit/human Fab; also called N277) VH: AQSLEESGGRLVTPGTPLTLTCTASGFTLSSYHMSWVRQAPGKGLEWIGIISSGGSIYYASWAKGRFTISRTSTTVDLKMTSPTTEDTATYFCARYAAYSIGMDLWGPGTLVTVSS VL: QFVLTQPASVQVNLGQMVSLTCTADTLSRSYASWYQQKPGQAPVLLIYRDTSRPSGVPDRFSGSTSGNTATLTISGAQAGDEADYYCATDDNSGSSYQYVFGGGTQLTVTG ?
87.8
